- targetDesc: Muscarinic acetylcholine receptor
- protocolDescription: Displacement of [3H]QNB from Muscarinic acetylcholine receptor of rat brain membrane
log10 IC50 overview
propertyMeasured: log10 IC50 (log10 of the value in nM)

> print(dat)
                                    molecule  observedmeasurement
 1  Cc1cc2c(s1)Nc1ccc(F)cc1N=C2N1CCN(C)CC1 [FLUMEZAPINE]                 1.87
 2  Cc1sc2c(c1C(C)C)C(N1CCN(C)CC1)=Nc1cc(F)ccc1N2                 1.81
 3  CCc1cc2c(s1)Nc1ccc(F)cc1N=C2N1CCN(C)C(C)C1 (configuration not stated)                 1.99
 4  CCc1cc2c(s1)Nc1ccc(F)cc1N=C2N1CC(C)N(C)CC1C (configuration not stated)                 2.39
 5   CCc1cc2c(s1)Nc1ccc(F)cc1N=C2N1CCN(C)CC1                 2.06
 6  CCc1c(C)sc2c1C(N1CCN(C)CC1)=Nc1cc(F)ccc1N2                 1.41
 7  CC(C)c1csc2c1C(N1CCN(C)CC1)=Nc1cc(F)ccc1N2                 1.41
 8    Cc1csc2c1C(N1CCN(C)CC1)=Nc1cc(F)ccc1N2                 2.00
 9  CCc1cc2c(s1)Nc1ccc(F)cc1N=C2N1CC(C)N(C)C(C)C1 (configuration not stated)                 2.41
10       CN1CCN(C2=Nc3cc(F)ccc3Nc3sccc32)CC1                 2.76
11  Cc1sc2c(c1C)C(N1CCN(C)CC1)=Nc1cc(F)ccc1N2                 0.95
12  CN1CCN(C2=Nc3cc(F)ccc3Nc3sc4c(c32)CCCC4)CC1                 1.53
